test: chemical genetic growth profiling, strain panel (AID 1159580);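 note: tested at 20 µM; growth read once vehicle control cultures reached saturation at 30 °C; 1 = growth at the plate median or of vehicle wells; lower values mean less growth of the strain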; conditions: S. cerevisiae deletion strains, growth OD, locus YHR079C, strain IRE1, active compounds read low
The campaign covered roughly 5,500 compounds. About 2,000 (36%) were called active. Not shown: some 18% with an inconclusive outcome. This is one part of the list.

molecule	normalized growth
Nc1nnc(-c2cccc(Cl)c2Cl)c(N)n1	0.995 (inactive)
COc1c(O)cc2c(-c3ccccc3)cc(=O)oc2c1OC	1.05 (inactive)
CS(=O)(=O)c1ccc([C@@H](O)[C@H](CF)NC(=O)C(Cl)Cl)cc1	0.953 (inactive)
Cc1csc2ncnc(N/N=C\c3ccccc3Cl)c12	0.997 (inactive)
C=C1C(N)CC2CC1C2(C)C (configuration not stated)	0.994 (inactive)
COc1ccc(C2CC(c3ccccc3)=Nc3ccccc3S2)cc1OC (configuration not stated)	0.914 (inactive)
CN1CCOC(c2ccccc2)c2ccccc2C1 (configuration not stated)	0.985 (inactive)
Cc1ncc(C[n+]2csc(CCO)c2C)c(=O)[nH]1	1.05 (inactive)
C#Cc1cccc(N=Cc2cc(Cl)cc(Br)c2O)c1	0.125 (active)
CN1CCN2c3ccccc3Cc3ccccc3C2C1 (configuration not stated)	0.987 (inactive)
CCC(C)COC(=O)/C=C/c1ccc(N=Cc2ccc(OC)cc2)cc1 (configuration not stated)	0.814 (inactive)
CN1CCc2c(c3ccccc3n2Cc2ccccc2)C1	1.03 (inactive)

---

test: chemical genetic growth profiling, strain panel (AID 1159580); conditions: S. cerevisiae deletion strains, growth OD, locus YBR009C, strain hhf1, active compounds read low
The campaign covered roughly 5,500 compounds. About 2,000 (36%) were called active. Another 18% or so got no clear call; they are omitted. The list shows a part of the results.
Measured normalized growth values are reported for all entries that follow.
readout_name: normalized growth

compound	recorded_value
CC(=O)O[C@@H]1CC2C(C)(C)[C@H](O)C[C@H](O)[C@]2(C)C2CC[C@@]3(C)[C@H](c4ccoc4)OC(=O)[C@H]4O[C@]43[C@@]21C (some centres undefined)	0.974
CCCCCCc1ccc(O)cc1O	0.788
COCCOC(=O)C1=C(C)NC(C)=C(C(=O)OC(C)C)C1c1cccc([N+](=O)[O-])c1 (centres undefined)	0.988
CC(=O)O[C@@H]1CC2C(C)(C)C(=O)CC[C@]2(C)C2CC[C@@]3(C)[C@H](c4ccoc4)OC(=O)C4OC43[C@@]21C (some centres undefined)	0.985
O=C1CCc2cc(OCCCCc3nnnn3C3CCCCC3)ccc2N1	0.989
COC(=O)C1=C(C)NC(C)=C(C(=O)OC)C1c1ccccc1[N+](=O)[O-]	0.863
CN1CCN2c3ccccc3Cc3ccccc3C2C1 (centres undefined)	0.987
NCCc1ccc(O)c(O)c1	0.978
CC(=O)O[C@@H]1CC2C(C)(C)CCC(=O)[C@]2(C)C2CC[C@@]3(C)[C@H](c4ccoc4)OC(=O)C4OC43[C@@]21C (some centres undefined)	1

---

test: chemical genetic growth profiling, strain panel (AID 1159580); conditions: S. cerevisiae deletion strains, growth OD, locus YML124C, strain tub3, active compounds read low
In all, about 5,500 compounds went through this assay and about 2,000 (36%) were called active. Another 18% or so got no clear call; they are omitted. This is one part of the list.
readout_name: normalized growth

compound	readout_name	recorded_value
CCN(CCCCOC(=O)c1ccc(OC)c(OC)c1)C(C)Cc1ccc(OC)cc1 (configuration not stated)	normalized growth	0.985
O=C(O)c1nc2cc(Cl)c(Cl)cc2[nH]c1=O	normalized growth	0.993
Cc1cc2cc3c(C)cc(=O)oc3c(C)c2o1	normalized growth	0.986
O=c1[nH]c2cc(Cl)c(Cl)cc2[nH]c1=O	normalized growth	1.02
CC1(C)O[C@@H]2CC3C4C[C@H](F)C5=CC(=O)C=C[C@]5(C)[C@@]4(F)[C@@H](O)C[C@]3(C)[C@]2(C(=O)CO)O1 (some centres not stated)	normalized growth	1.01
CC1=NCCc2c1[nH]c1cc(O)ccc21	normalized growth	0.988
C[C@@H]1CC[C@@]2(OC1)OC1C(O)C3C4CC[C@H]5C[C@H](O[C@@H]6O[C@H](CO)[C@H](O[C@@H]7O[C@H](CO)[C@@H](O)[C@H](O[C@@H]8OC[C@@H](O)[C@H](O)[C@H]8O)[C@H]7O[C@@H]7O[C@H](CO)[C@H](O)[C@H](O[C@@H]8O[C@H](CO)[C@@H](O)[C@H](O)[C@H]8O)[C@H]7O)[C@H](O)[C@H]6O)[C@H](O)C[C@]5(C)C4CC[C@]3(C)C1[C@@H]2C (some centres not stated)	normalized growth	0.0557

---

test: chemical genetic growth profiling, strain panel (AID 1159580);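 note: tested at 20 µM; growth read once vehicle control cultures reached saturation at 30 °C; 1 = growth at the plate median or of vehicle wells; lower values mean less growth of the strain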; details: S. cerevisiae deletion strains, growth OD, locus YDR334W, strain swr1
Out of some 5,500 compounds screened, about 2,000 (36%) were called active. Another 18% or so got no clear call; they are omitted. No stated cut-off is given here; in the data, active means normalized growth mostly below about 0.91 (no sharp cut-off); inconclusive means no clear call, values can overlap the other calls; inactive means mostly above about 0.92. Some of the results follow.
Outcome codes: y for active, n for inactive

compound	category
CC(=O)O[C@@H]1CC2C(C)(C)CCC(=O)[C@]2(C)C2CC[C@@]3(C)[C@H](c4ccoc4)OC(=O)C4OC43[C@@]21C (some centres undefined)	n
Nc1ccc(C(=O)O)c(O)c1	n
Nc1ccc(C(=O)Oc2ccccc2)c(O)c1	n
O=C1CC[C@]23C=CC(=O)NCCCCNCCCNC(=O)/C=C/c4ccc(c2c4)O[C@@H]3C1	n
C/C(=C\C(=O)OCCCCCCCCC(=O)O)C[C@@H]1OC[C@H](C[C@@H]2O[C@H]2[C@@H](C)[C@H](C)O)[C@@H](O)[C@H]1O	n
CC(=O)O[C@@H]1CC2C(C)(C)[C@H](O)C[C@H](O)[C@]2(C)C2CC[C@@]3(C)[C@H](c4ccoc4)OC(=O)[C@H]4O[C@]43[C@@]21C (some centres undefined)	n
CC(=O)Nc1ccc(OC(=O)c2ccccc2O)cc1	n
CC(=O)Nc1ccc(O)cc1	n
CN(C)C(=O)Oc1cc(OC(=O)N(C)C)cc(C(O)CNC(C)(C)C)c1 (centres undefined)	n
CC(=O)N(O)CCCCCNC(=O)CCC(=O)N(O)CCCCCNC(=O)CCC(=O)N(O)CCCCCN	n
O=C1c2c(O)ccc(O)c2C(=O)c2c(NCCNCCO)ccc(NCCNCCO)c21	n
CC[C@]12C=CCN3CC[C@@]4(c5ccc(OC)cc5N(C)C4[C@@](O)(C(=O)OC)[C@@H]1OC(C)=O)[C@@H]32 (some centres undefined)	n
CC(=O)Oc1c(-c2ccccc2)oc2c(CC=C(C)C)c3c(c(OC(C)=O)c2c1=O)C=CC(C)(C)O3	n
N[C@@H]1CONC1=O	n
CC[N+]1(C)CCCC(OC(=O)C(O)(c2ccccc2)c2ccccc2)C1 (centres undefined)	n
CC(=O)O[C@H]1C[C@@]2(C)[C@H](c3ccoc3)OC(=O)[C@H]3O[C@]32[C@@]2(C)C1[C@]1(C)C(C[C@H]2OC(C)=O)C(C)(C)[C@H](OC(C)=O)C[C@@H]1OC(C)=O (some centres undefined)	n
CC(=O)O.CC(=O)O.[Cd]	y
CC(=O)O[C@@H]1CC2C(C)(C)C(=O)CC[C@]2(C)C2CC[C@@]3(C)[C@H](c4ccoc4)OC(=O)C4OC43[C@@]21C (some centres undefined)	n
NC(=O)CC[C@@H](N)C(=O)O	n

---

assay: chemical genetic growth profiling, strain panel (AID 1159580);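 note: tested at 20 µM; growth read once vehicle control cultures reached saturation at 30 °C; 1 = growth at the plate median or of vehicle wells; lower values mean less growth of the strain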; conditions: S. cerevisiae deletion strains, growth OD, locus YIL073C, strain SPO22
Screen size: about 5,500 compounds; about 2,000 (36%) were called active. Roughly 18% stayed inconclusive and do not appear here. Rule as the data show it: active = normalized growth mostly below about 0.91 (no sharp cut-off); inconclusive = no clear call, values can overlap the other calls; inactive = mostly above about 0.92. This is one part of the list.
Classes used: true for active, false for inactive

chemical_string	category
CC(C)c1ccc2c(c1O)CC[C@H]1C3=C(CC[C@]21C)C(=O)OC3	false
Cc1cc2cc3c(C)cc(=O)oc3c(C)c2o1	false
CC(=O)Oc1cc(-c2coc3cc(OC(C)=O)c(OC(C)=O)c(OC(C)=O)c3c2=O)cc(OC(C)=O)c1OC(C)=O	true
CN(C)CC/C=C1/c2ccccc2COc2ccccc21	false
CC(C)[C@]12O[C@H]1[C@@H]1O[C@@]13[C@@]1(C)CCC4=C(COC4=O)[C@@H]1C[C@@H]1O[C@@]13C2=O	false
CNCCC=C1c2ccccc2CCc2ccccc21	false
CC(C)=CCc1c2c(c(O)c3c(=O)c(O)c(-c4ccccc4)oc13)C=CC(C)(C)O2	true
CN(C)CCC=C1c2ccccc2CCc2ccccc21	false
O=c1c2ccccc2[se]n1-c1ccccc1	true
COc1cccc(-c2cc(=O)c3ccc(OC)cc3o2)c1	false
COc1ccc2c(=O)cc(-c3ccccc3OC)oc2c1	false

---

experiment: chemical genetic growth profiling, strain panel (AID 1159580);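 note: tested at 20 µM; growth read once vehicle control cultures reached saturation at 30 °C; 1 = growth at the plate median or of vehicle wells; lower values mean less growth of the strain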; conditions: S. cerevisiae deletion strains, growth OD, locus YKL160W, strain elf1
In all, about 5,500 compounds went through this assay and about 2,000 (36%) were called active. About 18% were inconclusive and are not listed. No stated cut-off is given here; in the data, active means normalized growth mostly below about 0.91 (no sharp cut-off); inconclusive means no clear call, values can overlap the other calls; inactive means mostly above about 0.92. This is one part of the list.
Outcomes: Y (active), N (inactive)

compound	category
CC1=CCc2c(cc3oc(C)cc(=O)c3c2O)OC1	N
CC(=O)CC(c1ccccc1)c1c(O)c2ccccc2oc1=O (configuration not stated)	N
CC(C)c1ccc2c(c1O)CC[C@H]1C3=C(CC[C@]21C)C(=O)OC3	N
CC(=O)Nc1cccc(O)c1	N
CC(=O)O.CC(=O)O.[Cd]	Y
O=C(O)c1cn(-c2ccc(F)cc2)c2cc(N3CCNCC3)c(F)cc2c1=O	N
C[N+]1(CCCCC[N+]2(C)CCCC2)CCCC1	N
O=c1oc2ccccc2c(O)c1Cc1c(O)c2ccccc2oc1=O	N
S=c1ccss1	N
[N-]=[N+]=CC(=O)OCC(N)C(=O)O (configuration not stated)	N
Nc1ccc(C(=O)O)c(O)c1	N
CC(=O)Nc1ccc(OC(=O)c2ccccc2O)cc1	N
CC(C)(C)C(=O)C(Oc1ccc(Cl)cc1)n1cncn1 (configuration not stated)	Y
O=C(O)c1cc(=O)c2ccccc2o1	N
Nc1ccc(C(=O)Oc2ccccc2)c(O)c1	N
CC1(C)O[C@@H]2CC3C4C[C@H](F)C5=CC(=O)C=CC5(C)C4C(O)CC3(C)[C@]2(C(=O)CO)O1 (some centres not stated)	N
COc1ccc(-c2cc(=O)c3ccccc3o2)cc1OC	Y
